tgt: BIR3 domain of XIAP (Homo sapiens (Human), UniProt P98170)
Sequence (P98170 241-356 with tags or gaps limits assumed): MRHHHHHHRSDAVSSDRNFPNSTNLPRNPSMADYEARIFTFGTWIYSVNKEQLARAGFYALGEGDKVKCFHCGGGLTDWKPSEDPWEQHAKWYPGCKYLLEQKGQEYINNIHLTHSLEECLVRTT
assay.method.text: TR-FRET assay for BIR3 (inhibition of binding of XIAP BIR3 domain to SMAC-derived Peptide A)
cond: 6x His-tagged BIR3 domain (aa 241-356 of XIAP) 10 nM, Peptide A 20 nM, TR-FRET
Where a name gives a salt, the structure may show the parent alone.
readout.type: IC50 (µM)
One number for each entry, in µM.

Below, 5 compounds whose answers are already recorded.
compound	IC50 (µM)
CN[C@@H](C)C(=O)N[C@H]1CN(C(=O)c2ccc(F)cc2)c2cc(Cl)ccc2N(Cc2c(OC)ccc3c(Br)cccc23)C1=O [Example 126, hydrochloride]	21.5
CN[C@@H](C)C(=O)N[C@H]1CN(C(=O)c2ccc(C(C)=O)cc2)c2ccccc2N(CC(=O)Nc2cccc3ccccc23)C1=O	46.1
CN[C@@H](C)C(=O)N[C@H]1CN(C(=O)c2ccc(C(C)=O)cc2)c2ccccc2N(CCc2cccc3ccccc23)C1=O	7.42
CN[C@@H](C)C(=O)N[C@H]1CN(C(=O)c2ccc(C(C)(C)O)cc2)c2ccccc2N(Cc2c(OC)ccc3cc(Br)ccc23)C1=O [Example 95, trifluoroacetate]	36.3
CN[C@@H](C)C(=O)N[C@H]1CN(C(=O)CS(C)(=O)=O)c2cc(C#N)ccc2N(Cc2c(OC)ccc3ccccc23)C1=O [Example 166, hydrochloride]	43.6

Please supply IC50 for each of the following items, keeping them in order.
1. CN[C@@H](C)C(=O)N[C@H]1CN(C(=O)Cc2nnn[nH]2)c2ccccc2N(Cc2c(C)ccc3ccccc23)C1=O [Example 96b]
2. CN[C@@H](C)C(=O)N[C@H]1CN(C(=O)c2ccc(F)cc2)c2cc(C#N)ccc2N(Cc2c(OC(F)F)ccc3ccccc23)C1=O [Example 151, hydrochloride]
3. CN[C@@H](C)C(=O)N[C@H]1CN(C(C)=O)c2cc(C#N)ccc2N(Cc2c(OC)ccc3c(C#N)cccc23)C1=O
4. CN[C@@H](C)C(=O)N[C@H]1CN(C(=O)Cc2cccnc2)c2ccccc2N(Cc2c(OC)ccc3c(Br)cccc23)C1=O [Example 88, hydrochloride]
5. CN[C@@H](C)C(=O)N[C@H]1CN(C(=O)CS(C)(=O)=O)c2cc(C(F)(F)F)ccc2N(Cc2c(C3CC3)cnc3ccccc23)C1=O
6. CN[C@@H](C)C(=O)N[C@H]1CN(C(=O)CCCC(C)=O)c2ccccc2N(Cc2c(OC)ccc3cc(C(=O)O)ccc23)C1=O [Example 47, hydrochloride]
7. CN[C@@H](C)C(=O)N[C@H]1CN(C(=O)c2ccc(C)cc2)c2ccccc2N(Cc2c(OC)ccc3c(Br)cccc23)C1=O [Example 93, hydrochloride]

1: 38.8; 2: 49; 3: 32.4; 4: 39.9; 5: 34.4; 6: 44.6; 7: 47.6

---

tgt: BIR3 domain of XIAP (Homo sapiens (Human))
assay.method.text: TR-FRET assay for BIR3 (inhibition of binding of XIAP BIR3 domain to SMAC-derived Peptide A)
cond: 6x His-tagged BIR3 domain (aa 241-356 of XIAP) 10 nM, Peptide A 20 nM, TR-FRET
Counter-ions that a name gives are not always drawn.
I'd appreciate it if you could supply IC50 values for the items below.

> print(dat)
                                   compound  meas.value
1  CN[C@@H](C)C(=O)N[C@H]1CN(C(=O)c2ccc(F)cc2)c2cc(Cl)ccc2N(Cc2c(OC)ccc3cc(Br)ccc23)C1=O [Example 130, hydrochloride]     16.4 µM
2  CN[C@@H](C)C(=O)N[C@H]1CN(C(=O)CN2CCN(C)CC2)c2ccccc2N(Cc2c(C)ccc3ccccc23)C1=O [Example 12, hydrochloride]   > 54.8 µM
3  CN[C@@H](C)C(=O)N[C@H]1CN(C(=O)CS(C)(=O)=O)c2ccccc2N(Cc2c(OC(F)F)ccc3ccccc23)C1=O [Example 83, hydrochloride]   > 54.8 µM
4  CC[C@H](NCCO)C(=O)NC1C(=O)N(Cc2c(OC)ccc3c(Br)cccc23)c2ccccc2N(c2ccccc2)C1=O (stereo partly drawn)   > 54.8 µM
5  CN[C@@H](C)C(=O)N[C@H]1CN(C(=O)COCCOC)c2ccccc2N(Cc2c(C)ccc3ccccc23)C1=O [Example 10, hydrochloride]   > 54.8 µM

We next turn to a different compound, shown below.
Tell me reported IC50 for CC[C@H](NC)C(=O)N[C@H]1CN(C(=O)c2ccc(C(C)=O)cc2)c2ccccc2N(Cc2c(OC)ccc3cc(Br)ccc23)C1=O [Example 79, hydrochloride] , tested with BIR3 domain of XIAP (Homo sapiens (Human)).
3.48 µM
